Target: FimH (Escherichia coli, UniProt Q1R2J4)
Construct: performed with UTI89 bacteria and guinea pig red blood cells; endogenous in cells; host or cells: UTI89 bacteria (whole cells, type 1 piliated)
Assay type: cell-based
Conditions: concentration reducing bacterial agglutination of guinea pig red blood cells by greater than 90%; UTI89 bacteria
Each item that follows carries a reported HAI titer EC>90.

- molecule: "CNC(=O)c1cc(-c2ccc([C@@H](O)[C@H]3O[C@H](CO)[C@@H](O)[C@H](O)[C@@H]3O)c(C)c2)ccc1C#N"
  HAI titer EC>90: "0.006 µM"
- molecule: "Cc1cc(-c2ccc3cc[nH]c(=O)c3c2)ccc1[C@@H](O)[C@H]1O[C@H](CO)[C@@H](O)[C@H](O)[C@@H]1O"
  HAI titer EC>90: "0.006 µM"
- molecule: "Cc1cc(-c2ccc3cc[nH]c(=O)c3c2)cc(C)c1[C@H](O)[C@H]1OC(CO)[C@@H](O)[C@H](O)C1O (single isomer, unassigned)"
  HAI titer EC>90: "0.406 µM"
